Tested on: Streptococcus pneumoniae
Experiment: Antibacterial activity against Streptococcus pneumoniae RCMB 010010 at 100 umol/ml after 24 hrs by well diffusion assay
Assay type: functional
experimental_readout: diameter of the inhibition zone (DIZ) (mm)
Field format: number, assumed mm, no unit text.

compound: NS(=O)(=O)c1ccc(NC(=O)Cn2nc(Cc3ccccc3)c3ccccc3c2=O)cc1
target_entity: Streptococcus pneumoniae
units: mm
diameter of the inhibition zone (DIZ): 16.2

Query: Specify measured diameter of the inhibition zone (DIZ) for COc1ccc(Cc2nn(CC(=O)Nc3ccc(S(=O)(=O)Nc4ncccn4)cc3)c(=O)c3ccccc23)cc1 .
Response: 16.3

Query: Fill in diameter of the inhibition zone (DIZ) for record COc1ccc(Cc2nn(CCC(=O)Nc3ccc(S(=O)(=O)Nc4ncccn4)cc3)c(=O)c3ccccc23)cc1
Response: 15.7

Query: In one line, give reported diameter of the inhibition zone (DIZ) of the entry Nc1ccc(S(N)(=O)=O)cc1 [SULFANILAMIDE] .
Response: 15.8

Query: In one line, give reported diameter of the inhibition zone (DIZ) of the entry COc1ccc(Cc2nn(CCC(=O)Nc3ccc(S(N)(=O)=O)cc3)c(=O)c3ccccc23)cc1 .
Response: 18.3

Query: Report diameter of the inhibition zone (DIZ), nothing else, for this compound: O=C(Cn1nc(-c2ccccc2)c2ccccc2c1=O)Nc1ccc(S(=O)(=O)Nc2ncccn2)cc1
Response: 22.3

----------
System: Streptococcus pneumoniae
Assay: Antibacterial activity against Streptococcus pneumoniae RCMB 010010 at 100 umol/ml after 24 hrs by well diffusion assay
Assay type: functional
experimental_readout: diameter of the inhibition zone (DIZ) (mm)
Give just the number in mm; leave the unit off.

molecule: Nc1ccc(S(=O)(=O)Nc2ncccn2)cc1
target_entity: Streptococcus pneumoniae
numeric_value: 14.2
--
molecule: O=C(Cn1nc(-c2ccc(Cl)cc2)c2ccccc2c1=O)Nc1ccc(S(=O)(=O)Nc2nccs2)cc1
target_entity: Streptococcus pneumoniae
numeric_value: 20.2

Turning now to a further record.
Query: Give the observed diameter of the inhibition zone (DIZ) of Nc1ccc(S(=O)(=O)Nc2nccs2)cc1 for Streptococcus pneumoniae.
Response: 15.8

----------
Test system: Staphylococcus aureus
Experiment: Antibacterial activity against Staphylococcus aureus RCMB 010028 at 100 umol/ml after 24 hrs by well diffusion assay
Type: functional
experimental_readout: diameter of the inhibition zone (DIZ) (mm)
# number only, unit mm dropped from output

Please review the entries below; each comes with its answer.
molecule: NS(=O)(=O)c1ccc(NC(=O)Cn2nc(Cc3ccccc3)c3ccccc3c2=O)cc1
diameter of the inhibition zone (DIZ) (mm): 21
--
molecule: O=C(Cn1nc(-c2ccc(Cl)cc2)c2ccccc2c1=O)Nc1ccc(S(=O)(=O)Nc2nccs2)cc1
diameter of the inhibition zone (DIZ) (mm): 19.9
--
molecule: Nc1ccc(S(=O)(=O)Nc2nccs2)cc1 [SULFATHIAZOLE]
diameter of the inhibition zone (DIZ) (mm): 15
--
molecule: COc1ccc(Cc2nn(CCC(=O)Nc3ccc(S(N)(=O)=O)cc3)c(=O)c3ccccc23)cc1
diameter of the inhibition zone (DIZ) (mm): 22.3

Okay, next one:
Query: Find diameter of the inhibition zone (DIZ) for COc1ccc(Cc2nn(CC(=O)Nc3ccc(S(=O)(=O)Nc4ncccn4)cc3)c(=O)c3ccccc23)cc1 on Staphylococcus aureus and write it down.
Response: 18.6

----------
Test system: Streptococcus pneumoniae
Assay: Antibacterial activity against Streptococcus pneumoniae RCMB 010010 at 100 umol/ml after 24 hrs by well diffusion assay
Assay type: functional
Entries and their diameter of the inhibition zone (DIZ) values follow.

Solved entries (count: 2):
molecule: COc1ccc(Cc2nn(CC(=O)Nc3ccc(S(N)(=O)=O)cc3)c(=O)c3ccccc23)cc1
diameter of the inhibition zone (DIZ): 18.2 mm

molecule: O=C(Cn1nc(-c2ccccc2)c2ccccc2c1=O)Nc1ccc(S(=O)(=O)Nc2nccs2)cc1
diameter of the inhibition zone (DIZ): 20.3 mm

Query: Write down the reported diameter of the inhibition zone (DIZ) (system: Streptococcus pneumoniae) of NS(=O)(=O)c1ccc(NC(=O)Cn2nc(-c3ccccc3)c3ccccc3c2=O)cc1
Response: 16.8 mm
